The measurements presented in this section are drawn from ChEMBL document CHEMBL1759862.

System Tested: NAD(P)H dehydrogenase [quinone] 1 (Mus musculus) (UniProt Q64669)
Sequence (Q64669 whole entry): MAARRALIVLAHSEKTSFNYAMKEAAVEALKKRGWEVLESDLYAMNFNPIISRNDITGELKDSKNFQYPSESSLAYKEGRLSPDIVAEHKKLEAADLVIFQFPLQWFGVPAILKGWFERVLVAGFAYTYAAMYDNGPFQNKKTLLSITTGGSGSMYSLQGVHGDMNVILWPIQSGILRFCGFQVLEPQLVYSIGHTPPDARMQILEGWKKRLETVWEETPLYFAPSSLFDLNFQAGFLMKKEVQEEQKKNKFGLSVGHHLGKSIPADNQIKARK
Procedure Text: Induction of NQO1 activity in mouse Hepa-1c1c7 cells after 48 hrs
Assay type: cell-based
Note to self: values exactly at 20 nM are Criterion met. So CD at or above 20 nM is Criterion met, below is Criterion not met.

>>> category("CC#C[C@]12C=C(C#N)C(=O)C=C1[C@@]1(C)C=C(C#N)C(=O)C(C)(C)[C@@H]1CC2 (racemic)")
"Criterion not met"
>>> category("CC1(C)CC[C@]2(C(=O)n3ccnc3)CC[C@]3(C)[C@H](C(=O)C=C4[C@@]5(C)C=C(C#N)C(=O)C(C)(C)[C@@H]5CC[C@]43C)[C@@H]2C1")
"Criterion not met"
>>> category("CC1(C)C(=O)C(C#N)=C[C@]2(C)C3=CC(=O)C(C#N)=C[C@]3(C)CC[C@@H]12")
"Criterion met"
>>> category("CC1(C)C(=O)C(C#N)=C[C@]2(C)C3=CC(=O)C(C#N)=C[C@]3(C)CC[C@@H]12 (racemic)")
"Criterion not met"
>>> category("CC1(C)C(=O)C(C#N)=C[C@]2(C)C3=CC(=O)C=C[C@]3(C)CC[C@@H]12 (racemic)")
"Criterion met"

INPUT: Decide: is the reported value of CD for CC1(C)C(=O)C(C#N)=C[C@]2(C)C3=CC(=O)C(C#N)=C[C@]3(C#Cc3nccs3)CCC12 (mixture of isomers) equal to or greater than 20 nM?
OUTPUT: Criterion met

INPUT: Decide: is the reported value of CD for CC1(C)C(=O)C(C#N)=C[C@@]2(C)C3=CC(=O)C(C#N)=C[C@@]3(C)CC[C@H]12 equal to or greater than 20 nM?
OUTPUT: Criterion not met

* * *

System Tested: NAD(P)H dehydrogenase [quinone] 1 (Mus musculus)
Procedure Text: Induction of NQO1 activity in mouse Hepa-1c1c7 cells after 48 hrs
Type: cell-based
Experimental Readout: CD
The answer consists of two parts: a number and, after it, its unit.

>>> result("C#C[C@]12C=C(C#N)C(=O)C=C1[C@@]1(C)C=C(C#N)C(=O)C(C)(C)[C@@H]1CC2")
"2.7 nM"
>>> result("CC1(C)CC[C@]2(C(=O)O)CC[C@]3(C)[C@H](C(=O)C=C4[C@@]5(C)C=C(C#N)C(=O)C(C)(C)[C@@H]5CC[C@]43C)[C@@H]2C1")
"2.3 nM"
>>> result("CC1(C)C(=O)C(C#N)=C[C@]2(C)C3=CC(=O)C(C#N)=C[C@]3(C#C[Si](C)(C)C)CC[C@@H]12")
"3 nM"

INPUT: Return CD measured with NAD(P)H dehydrogenase [quinone] 1 (Mus musculus) given this compound: CC1(C)C(=O)C(C#N)=C[C@]2(C)C3=CC(=O)C=C[C@]3(C)CC[C@@H]12
OUTPUT: 170 nM

INPUT: Return CD measured with NAD(P)H dehydrogenase [quinone] 1 (Mus musculus) given this compound: CC1(C)C(=O)C(C#N)=C[C@@]2(C)C3=CC(=O)C=C[C@@]3(C)CC[C@H]12
OUTPUT: 140 nM

INPUT: Return CD measured with NAD(P)H dehydrogenase [quinone] 1 (Mus musculus) given this compound: CC1(C)C(=O)C(C#N)=C[C@@]2(C)C3=CC(=O)C(C#N)=C[C@@]3(C#C[Si](C)(C)C)CC[C@H]12
OUTPUT: 2.3 nM

INPUT: Return CD measured with NAD(P)H dehydrogenase [quinone] 1 (Mus musculus) given this compound: CC1(C)C(=O)C(C#N)=C[C@]2(C)C3=CC(=O)C(C#N)=C[C@]3(C#C[Si](C)(C)C(C)(C)C)CCC12 (mixture of isomers)
OUTPUT: 150 nM
